target: tRNA^pyl/pylRS^AF (Methanosarcina mazei, UniProt Q8PWY1, Y306A/Y384F); construct: expressed in transfected cells; host or cells: HeLa Kyoto cells, plasmid pCMV tRNA^pyl/pylRS^AF; test: UAA dependent amber suppression in HeLa cells (NLS-mCherry-^TAGGFP, automated microscope), RS^AF; assay type: cell-based, M. maize; settings: 10 μM UAA, HeLa nuclei, 24 h after transfection
Sequence (Q8PWY1 whole entry Y306A/Y384F): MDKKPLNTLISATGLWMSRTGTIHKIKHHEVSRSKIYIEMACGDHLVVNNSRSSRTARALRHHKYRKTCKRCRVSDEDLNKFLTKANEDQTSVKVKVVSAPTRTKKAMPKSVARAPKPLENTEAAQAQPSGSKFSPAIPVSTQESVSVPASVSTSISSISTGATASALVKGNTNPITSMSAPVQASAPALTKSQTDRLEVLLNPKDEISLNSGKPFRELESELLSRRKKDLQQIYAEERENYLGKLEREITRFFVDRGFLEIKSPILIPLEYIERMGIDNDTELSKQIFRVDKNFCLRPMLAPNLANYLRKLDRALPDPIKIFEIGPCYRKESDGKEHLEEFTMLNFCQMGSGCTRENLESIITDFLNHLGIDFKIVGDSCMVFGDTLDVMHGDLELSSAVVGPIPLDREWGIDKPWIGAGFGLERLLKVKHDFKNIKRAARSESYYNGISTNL
Value type: IGFP (average intensity of GFP, normalized)
Give bare numbers.

Recorded results for 3 molecules are shown here.
Molecule: N[C@@H](CCCCNC(=O)OCC1CC2C=CC1C2)C(=O)O (stereo partly shown)
Observed result: 57.5
//
Molecule: N[C@@H](CCCCNC(=O)OC1C#CCCCCC1)C(=O)O (stereo partly shown)
Observed result: 131.7
//
Molecule: N[C@@H](CCCCNC(=O)OC1CC2C=CC1C2)C(=O)O (stereo partly shown)
Observed result: 46.1

// moving on: another record for IGFP (average intensity of GFP, normalized)
Name the reported IGFP (average intensity of GFP, normalized) value associated with the molecule N[C@@H](CCCCNC(=O)OC1CC/C=C/CCC1)C(=O)O (stereo partly shown)
11.0

* * *

target: tRNA^pyl/pylRS^AF (Methanosarcina mazei, UniProt Q8PWY1, Y306A/Y384F); construct: expressed in transfected cells; host or cells: HeLa Kyoto cells, plasmid pCMV tRNA^pyl/pylRS^AF; assay: UAA dependent amber suppression in HeLa cells (NLS-mCherry-^TAGGFP, automated microscope), RS^AF; format: cell-based, M. maize; conditions: 250 μM UAA, HeLa nuclei, 24 h after transfection
Can you tell me IGFP (average intensity of GFP, normalized) for the items I'm about to list?
One number for each entry.

Recorded results for 3 compounds are shown here.
Compound: N[C@@H](CCCCNC(=O)OC1C#CCCCCC1)C(=O)O (stereo partly shown)
Observed result: 203.6
--
Compound: N[C@@H](CCCCNC(=O)OC1CC2C=CC1C2)C(=O)O (stereo partly shown)
Observed result: 100.4
--
Compound: N[C@@H](CCCCNC(=O)OC1CC/C=C/CCC1)C(=O)O (stereo partly shown)
Observed result: 36.5

Name the reported IGFP (average intensity of GFP, normalized) value associated with the compound N[C@@H](CCCCNC(=O)OCC1CC2C=CC1C2)C(=O)O (stereo partly shown)
163.5

* * *

biological target: tRNA^pyl/pylRS^AF (Methanosarcina mazei, UniProt Q8PWY1, Y306A/Y384F); construct: expressed in transfected cells; host or cells: HeLa Kyoto cells, plasmid pCMV tRNA^pyl/pylRS^AF; test: UAA dependent amber suppression in HeLa cells (NLS-mCherry-^TAGGFP, automated microscope), RS^AF; type: cell-based, M. maize; settings: 1000 μM UAA, HeLa nuclei, 24 h after transfection
Value type: IGFP (average intensity of GFP, normalized)
Numbers only.

Recorded results for 3 molecules are shown here.
Molecule: N[C@@H](CCCCNC(=O)OC1CC/C=C/CCC1)C(=O)O (stereo partly shown)
Observed result: 20.6
--
Molecule: N[C@@H](CCCCNC(=O)OC1C#CCCCCC1)C(=O)O (stereo partly shown)
Observed result: 118.4
--
Molecule: N[C@@H](CCCCNC(=O)OCC1CC2C=CC1C2)C(=O)O (stereo partly shown)
Observed result: 108.9

Name the reported IGFP (average intensity of GFP, normalized) value associated with the molecule N[C@@H](CCCCNC(=O)OC1CC2C=CC1C2)C(=O)O (stereo partly shown)
96.9
